- Tested on: cathepsin D (catD) versus beta-secretase (BACE)
- method_description: Selectivity for BACE versus catD (ratio of IC50 values)
- Format: biochemical
- stated_conditions: each value is an average of four experimental runs; multiple values = more than one experiment
Decide by Selectivity IC50(catD)/IC50(BACE): equal to or exceeding 3 means class 1, less means class 0.

# input Test whether the compound CC(C)(C)c1cccc(C2(NCC(O)C(Cc3cc(F)cc(F)c3)NS(C)(=O)=O)CCc3n[nH]cc3C2)c1 (single isomer, unassigned) [Example 50-16] records Selectivity IC50(catD)/IC50(BACE) of 3 or higher.
# output class 0

# input Test whether the compound CCON=C1CCC(NCC(O)C(Cc2cc(F)cc(F)c2)NC(C)=O)(c2cccc(C(C)(C)C)c2)CC1 (centres unmarked) records Selectivity IC50(catD)/IC50(BACE) of 3 or higher.
# output class 0

# input Test whether the compound CC(=O)NC(Cc1cc(F)cc(F)c1)C(O)CNC1(c2cccs2)CCc2n[nH]cc2C1 (centres unmarked) records Selectivity IC50(catD)/IC50(BACE) of 3 or higher.
# output class 1

# input Test whether the compound CC(=O)NC(Cc1cc(F)cc(F)c1)C(O)CNC1(c2cccc(C(C)(C)C)c2)CCC(=CC#N)CC1 (centres unmarked) records Selectivity IC50(catD)/IC50(BACE) of 3 or higher.
# output class 0

# input Test whether the compound CC(C)(C)c1cccc(C2(NCC(O)C(Cc3cc(F)cc(F)c3)NC(=O)CF)CCc3n[nH]cc3C2)c1 (single isomer, unassigned) [Example 50-26] records Selectivity IC50(catD)/IC50(BACE) of 3 or higher.
# output class 1

# input Test whether the compound CC(=O)NC(Cc1cc(F)cc(F)c1)C(O)CNC1(c2cccc(-c3ccsc3)c2)CCc2nn(C)cc2C1 (centres unmarked) records Selectivity IC50(catD)/IC50(BACE) of 3 or higher.
# output class 0

# input Test whether the compound Cn1cc2c(n1)CCC(NCC(O)C(Cc1cc(F)cc(F)c1)NC(=O)CF)(c1cccc(C(C)(C)C)c1)C2 (centres unmarked) records Selectivity IC50(catD)/IC50(BACE) of 3 or higher.
# output class 0

# input Test whether the compound CC(=O)NC(Cc1ccccc1)C(O)CNC1(c2cccc(C(C)(C)C)c2)CCc2n[nH]cc2C1 (centres unmarked) records Selectivity IC50(catD)/IC50(BACE) of 3 or higher.
# output class 1

# input Test whether the compound Cn1cc2c(n1)CCC(NCC(O)C(Cc1cc(F)cc(F)c1)NS(C)(=O)=O)(c1cccc(C(C)(C)C)c1)C2 (single isomer, unassigned) records Selectivity IC50(catD)/IC50(BACE) of 3 or higher.
# output class 1

# input Test whether the compound CC(=O)NC(Cc1cc(F)cc(F)c1)C(O)CNC1(c2cccc(C(C)(C)C)c2)CCc2nn(C)cc2C1 (centres unmarked) records Selectivity IC50(catD)/IC50(BACE) of 3 or higher.
# output class 0

# input Test whether the compound CC(=O)NC(CC(C)C)C(O)CNC1(c2cccc(C(C)(C)C)c2)CCc2n[nH]cc2C1 (centres unmarked) records Selectivity IC50(catD)/IC50(BACE) of 3 or higher.
# output class 1

# input Test whether the compound CC(C)(C)c1cccc(C2(NCC(O)C(Cc3cc(F)cc(F)c3)NS(C)(=O)=O)CCc3n[nH]cc3C2)c1 (single isomer, unassigned) [Example 50-15] records Selectivity IC50(catD)/IC50(BACE) of 3 or higher.
# output class 1

# input Test whether the compound CC(=O)NC(Cc1cc(F)cc(F)c1)C(O)CNC1(c2cccc(-c3ccoc3)c2)CCc2nn(C)cc2C1 (centres unmarked) records Selectivity IC50(catD)/IC50(BACE) of 3 or higher.
# output class 0

# input Test whether the compound CC(C)(C)c1cccc(C2(NCC(O)C(Cc3cc(F)cc(F)c3)NC(=O)CF)CCc3n[nH]cc3C2)c1 (single isomer, unassigned) [Example 50-27] records Selectivity IC50(catD)/IC50(BACE) of 3 or higher.
# output class 1
